Test system: Staphylococcus aureus
Measurement protocol: Antibacterial activity against Staphylococcus aureus ATCC 29213 by agar dilution method
Format: functional
Task for the reader: assign each of the following compounds its reported MIC.

Examples from the recorded data:
CC(C)(NS(C)(=O)=O)[C@H](NC(=O)c1ccc(-c2cc3cc(F)ccc3o2)cc1)C(=O)NO    32 µg/mL
CC(C)(NS(C)(=O)=O)[C@H](NC(=O)c1ccc(-c2cc3ccc(F)cc3o2)cc1)C(=O)NO    64 µg/mL
CC(C)(NS(C)(=O)=O)[C@H](NC(=O)c1ccc(-c2cc3ccncc3o2)cc1)C(=O)NO    > 128 µg/mL
CN(C)CCOc1ccc2cc(-c3ccc(C(=O)N[C@H](C(=O)NO)C(C)(C)NS(C)(=O)=O)cc3)oc2c1    > 128 µg/mL
C[C@@H](O)[C@H](NC(=O)c1ccc(C#Cc2ccc(CN3CCOCC3)cc2)cc1)C(=O)NO    > 128 µg/mL
CC(C)(NS(C)(=O)=O)[C@H](NC(=O)c1ccc(-c2cc3ccc(OCCO)cc3o2)cc1)C(=O)NO    > 128 µg/mL

Please state, for each entry, its recorded MIC.
1. CC(C)(NS(C)(=O)=O)[C@H](NC(=O)c1ccc(-c2cc3ccccn3n2)cc1)C(=O)NO
2. CC(C)(NS(C)(=O)=O)[C@H](NC(=O)c1ccc(-c2cc3ccc(O)cc3o2)cc1)C(=O)NO
3. CC(C)(NS(C)(=O)=O)[C@H](NC(=O)c1ccc(-c2cc3cc4c(cc3o2)OCO4)cc1)C(=O)NO
4. CC(C)(NS(C)(=O)=O)[C@H](NC(=O)c1ccc(-c2cc3ccccc3o2)cc1)C(=O)NO

Response given:
1: > 128 µg/mL; 2: > 64 µg/mL; 3: > 32 µg/mL; 4: 64 µg/mL

====

Task for the reader: assign each of the following molecules its reported MIC.
Tested on: Escherichia coli
Measurement protocol: Antibacterial activity against Escherichia coli TG1 by agar dilution method
Assay type: functional
Answers are plain numbers, in µg/mL.

Examples from the recorded data:
CC(C)(NS(C)(=O)=O)[C@H](NC(=O)c1ccc(-c2cc3ccc(O)cc3o2)cc1)C(=O)NO    1
Cc1ccc(-c2ccc(C(=O)N[C@H](C(=O)NO)C(C)(C)NS(C)(=O)=O)nc2)cc1    32
CC(C)(NS(C)(=O)=O)[C@H](NC(=O)c1ccc(-c2cc3ccccc3o2)cc1)C(=O)NO    0.25
CC(C)(NS(C)(=O)=O)[C@H](NC(=O)c1ccc(-c2cc3ccccn3n2)cc1)C(=O)NO    64
CC(C)(NS(C)(=O)=O)[C@H](NC(=O)c1ccc(-c2ccccc2)cc1)C(=O)NO    2
CC(C)(NS(C)(=O)=O)[C@H](NC(=O)c1ccc(-c2cc3ccc(OCCO)cc3o2)cc1)C(=O)NO    1
Cc1cnc(-c2ccc(C(=O)N[C@H](C(=O)NO)C(C)(C)NS(C)(=O)=O)cc2)nc1    64
CC(C)(NS(C)(=O)=O)[C@H](NC(=O)c1ccc(-c2cc3cncnc3o2)cc1)C(=O)NO    128

Please state, for each entry, its recorded MIC.
1. CC(C)(NS(C)(=O)=O)[C@H](NC(=O)c1ccc(-c2cc3cc4c(cc3o2)OCO4)cc1)C(=O)NO
2. Cc1ccc(-c2ccc(C(=O)N[C@H](C(=O)NO)C(C)(C)NS(C)(=O)=O)cc2)cc1
3. CC(C)(NS(C)(=O)=O)[C@H](NC(=O)c1ccc(-c2cc3ccncc3o2)cc1)C(=O)NO
4. CC(C)(NS(C)(=O)=O)[C@H](NC(=O)c1ccc(-c2nc3ccccc3o2)cc1)C(=O)NO
5. CN(C)CCOc1ccc2cc(-c3ccc(C(=O)N[C@H](C(=O)NO)C(C)(C)NS(C)(=O)=O)cc3)oc2c1

Response given:
0.063
1
8
1
4

Please state, for each entry, its recorded MIC.
1. CC(C)(NS(C)(=O)=O)[C@H](NC(=O)c1ccc(-c2cc3cc(F)ccc3o2)cc1)C(=O)NO
2. CC(C)(NS(C)(=O)=O)[C@H](NC(=O)c1ccc(-c2cc3ccc(F)cc3o2)cc1)C(=O)NO

Response given:
1. 0.25
2. 0.25

Please state, for each entry, its recorded MIC.
1. C[C@@H](O)[C@H](NC(=O)c1ccc(C#Cc2ccc(CN3CCOCC3)cc2)cc1)C(=O)NO
2. Cc1ccc(-c2ccc(C(=O)N[C@H](C(=O)NO)C(C)(C)NS(C)(=O)=O)cn2)cc1

Response given:
1. 0.125
2. 8

====

Endpoint: IC50. System: UDP-3-O-acyl-N-acetylglucosamine deacetylase (Escherichia coli K-12). Items follow.
Sequence (P0A725 whole entry): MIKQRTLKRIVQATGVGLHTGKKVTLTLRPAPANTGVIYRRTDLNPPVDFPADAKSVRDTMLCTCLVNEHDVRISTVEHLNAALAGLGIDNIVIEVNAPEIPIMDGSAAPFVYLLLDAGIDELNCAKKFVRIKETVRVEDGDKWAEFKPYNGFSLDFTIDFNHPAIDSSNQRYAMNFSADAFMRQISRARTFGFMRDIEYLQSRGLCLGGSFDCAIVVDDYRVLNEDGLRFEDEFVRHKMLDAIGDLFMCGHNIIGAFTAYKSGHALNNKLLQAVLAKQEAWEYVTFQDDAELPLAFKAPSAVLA

Cc1ccc(-c2ccc(C(=O)N[C@H](C(=O)NO)C(C)(C)NS(C)(=O)=O)cc2)cc1    0.42 µM
CC(C)(NS(C)(=O)=O)[C@H](NC(=O)c1ccc(-c2cc3ccc(OCCO)cc3o2)cc1)C(=O)NO    0.01 µM
CC(C)(NS(C)(=O)=O)[C@H](NC(=O)c1ccc(-c2cc3ccncc3o2)cc1)C(=O)NO    1.4 µM
CC(C)(NS(C)(=O)=O)[C@H](NC(=O)c1ccc(-c2cc3cncnc3o2)cc1)C(=O)NO    > 10 µM
CC(C)(NS(C)(=O)=O)[C@H](NC(=O)c1ccc(-c2ccccc2)cc1)C(=O)NO    1.2 µM
CC(C)(NS(C)(=O)=O)[C@H](NC(=O)c1ccc(-c2cc3ccccn3n2)cc1)C(=O)NO    > 10 µM

Please state, for each entry, its recorded IC50.
1. CN(C)CCOc1ccc2cc(-c3ccc(C(=O)N[C@H](C(=O)NO)C(C)(C)NS(C)(=O)=O)cc3)oc2c1
2. Cc1ccc(-c2ccc(C(=O)N[C@H](C(=O)NO)C(C)(C)NS(C)(=O)=O)nc2)cc1

Response given:
["0.022 µM", "> 10 µM"]

====

Task for the reader: assign each of the following compounds its reported MIC.
System: Staphylococcus aureus
Measurement protocol: Antibacterial activity against Staphylococcus aureus ATCC 29213 by agar dilution method
Assay type: functional

Examples from the recorded data:
Cc1ccc(-c2ccc(C(=O)N[C@H](C(=O)NO)C(C)(C)NS(C)(=O)=O)cc2)cc1    > 128 µg/mL
CC(C)(NS(C)(=O)=O)[C@H](NC(=O)c1ccc(-c2cc3cncnc3o2)cc1)C(=O)NO    > 128 µg/mL

Here's the next entry for you.
Challenge: Could you share which MIC value was measured for `CC(C)(NS(C)(=O)=O)[C@H](NC(=O)c1ccc(-c2nc3ccccc3o2)cc1)C(=O)NO` ?
Response given: > 128 µg/mL

These data points were gathered from ChEMBL document CHEMBL4002609.
